# Assay target: T1, human TREM2 (triggering receptor expressed on myeloid cells 2) (human) (UniProt Q9NZC2)
# T1 sequence (looked up): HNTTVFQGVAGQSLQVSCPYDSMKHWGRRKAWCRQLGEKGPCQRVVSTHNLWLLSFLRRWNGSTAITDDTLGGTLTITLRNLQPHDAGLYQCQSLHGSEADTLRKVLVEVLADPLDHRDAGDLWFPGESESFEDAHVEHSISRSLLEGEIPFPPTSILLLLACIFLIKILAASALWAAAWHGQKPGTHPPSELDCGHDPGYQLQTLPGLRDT
# Assay explanation: 1st screen, 110 nM Ab
Reported Binding Signal (fold over 6E7 parental antibody) by item:
Give just the numeric value; fold need not be written.

INSERT INTO measurements (binder, value) VALUES
  ('6E7 antibody affinity modulation variant V67 (antibody, V domains shown) VH: EVQLVQSGAEVKKPGESLKISCKGSGYSFTSYWIAWVRQMPGKGLEWMGMIYPGDSDTRYSPSFQGQVTISADKSISTAYLQWSSLKASDTAMYFCARQRTFYYDSSDYFDYWGQGTLVTVSS VL: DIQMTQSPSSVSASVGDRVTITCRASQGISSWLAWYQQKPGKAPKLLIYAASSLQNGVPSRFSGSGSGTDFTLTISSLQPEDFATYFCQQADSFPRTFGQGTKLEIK', 0.8),
  ('6E7 antibody affinity modulation variant V21 (antibody, V domains shown) VH: EVQLVQSGAEVKKPGESLKISCKGSGYSFTSYWIAWVRQMPGKGLEWMGIIYPGDSDTRYSPSFQGQVTISADKSISTAYLQWSSLKASDTAMYFCARQRTFYYDSSDFFDYWGQGTLVTVSS VL: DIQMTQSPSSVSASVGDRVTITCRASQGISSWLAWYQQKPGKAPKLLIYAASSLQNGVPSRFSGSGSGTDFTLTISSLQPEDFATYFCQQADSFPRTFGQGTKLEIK', 0.76),
  ('6E7 antibody affinity modulation variant V78 (antibody, V domains shown) VH: EVQLVQSGAEVKKPGESLKISCKGSGYRFTSYWIAWVRQMPGKGLEWMGIIYPGDSDTRYSPSFQGQVTISADKSISTAYLQWSSLKASDTAMYFCARQRTFYYDSSDYFDYWGQGTLVTVSS VL: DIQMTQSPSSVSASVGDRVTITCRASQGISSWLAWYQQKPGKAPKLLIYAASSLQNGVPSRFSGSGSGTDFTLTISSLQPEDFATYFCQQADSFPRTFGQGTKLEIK', 0.86);

Turning to the following binder.
Query: Quickly give me recorded Binding Signal (fold over 6E7 parental antibody) for 6E7 antibody affinity modulation variant V59 (antibody, V domains shown) VH: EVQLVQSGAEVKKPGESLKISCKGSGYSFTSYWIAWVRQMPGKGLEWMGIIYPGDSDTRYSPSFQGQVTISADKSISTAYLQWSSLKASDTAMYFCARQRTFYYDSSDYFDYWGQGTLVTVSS VL: DIQMTQSPSSVSASVGDRVTITCRASQGISSWLAWYQQKPGKAPKLLIYAASSLQNGVPSRFSGSGSGTDFTLTISSLQPEDFATYFCMQADSFPRTFGQGTKLEIK
Reply: 0.19
